# ASSAY TARGET: TJP2_1, Q9UDY2
# Sequence (Q9UDY2 24-128): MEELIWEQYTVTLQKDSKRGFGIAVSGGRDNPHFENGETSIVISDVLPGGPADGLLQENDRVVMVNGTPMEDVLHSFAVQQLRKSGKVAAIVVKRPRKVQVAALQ
# PROTOCOL DESCRIPTION: holdup assay
# Parameters: key: below the threshold = too weak to quantify, mostly under pKd 3.1 to 4
# RUN CONDITIONS: plain residues with an end cap or a label only (N-terminal biotin on a linker: ttds)

BINDER	pKd
FVETQHQTQV [FAT3, Q8TDW7]	below the threshold
SGGKRKETLV [NET1, Q7Z628]	3.8
KLVIKTETTV [RASSF6, Q6ZTQ3]	below the threshold
NPDALPETLV [ARHGAP6, O43182]	below the threshold
SHSSKGETAV [FZD7, O75084]	below the threshold
PPRQRSETQV [HPV82-E6, Q9IR59]	3.44
SRSRRRETAL [HPV33-E6, P06427]	4.01
